B1: ZNF449 (parent)
chain: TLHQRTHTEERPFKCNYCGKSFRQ

variants of: B1; assay: protein stability index of a GFP-peptide fusion (GPS, HEK-293T) (PSI 1-6); higher = more stable; conditions: c terminus: a fixed tail appended;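 note: lentivirally expressed fusions sorted by FACS into six bins by GFP to DsRed ratio, PSI derived from sequencing read proportions per bin multiplied by bin number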
Quantity: protein stability index

variant_annotation=S21W test_value=2.29
variant_annotation=N16S test_value=3.03
variant_annotation=C18E test_value=3.78
variant_annotation=T1N test_value=2.87
variant_annotation=Y17F test_value=2.22
variant_annotation=E10Y test_value=2.55
variant_annotation=R23D test_value=3
variant_annotation=H3V test_value=1.98
variant_annotation=C15S test_value=3.7
variant_annotation=H3E test_value=2.87
variant_annotation=E9L test_value=1.2
variant_annotation=Q24F test_value=2.56
variant_annotation=F22A test_value=3.02
variant_annotation=F22R test_value=1.48
variant_annotation=T1H test_value=2.66
variant_annotation=R5F test_value=1.78
variant_annotation=C15G test_value=3.43
variant_annotation=T1C test_value=3.64
variant_annotation=P12I test_value=3.29
variant_annotation=Q24M test_value=2.77
variant_annotation=L2F test_value=3.22
